melting point by entry:

// solved cases for melting point follow
> print(dat)
                                   compound    result.type    observed.result
1  Cc1nn(-c2ccccc2)c2c1C(c1ccc(C(F)(F)F)cc1)C(C#N)=C(NS(=O)(=O)c1ccc(C(F)(F)F)cc1)O2 (stereo not shown)  melting point  153.7 to 154.1 °C
2  Cc1nn(-c2ccccc2)c2c1C(c1ccc(C(F)(F)F)cc1)C(C#N)=C(NS(=O)(=O)c1ccc(F)cc1F)O2 (stereo not shown)  melting point    65.8 to 66.5 °C
3  COc1cccc(C2C(C#N)=C(NS(=O)(=O)c3ccccc3)Oc3c2c(C)nn3-c2ccccc2Cl)c1 (stereo not shown)  melting point      66 to 67.5 °C
4  Cc1ccc(S(=O)(=O)NC2=C(C#N)C(c3ccc(Br)cc3)c3c(C)nn(-c4ccccc4)c3O2)cc1 (stereo not shown)  melting point  101.6 to 102.3 °C
5  Cc1ccc(S(=O)(=O)NC2=C(C#N)C(c3ccccc3)c3c(C)nn(-c4ccccc4Cl)c3O2)cc1 (stereo not shown)  melting point      77.4 to 78 °C

melting point for Cc1ccc(-n2nc(C)c3c2OC(NS(=O)(=O)c2ccc(C)cc2)=C(C#N)C3c2ccccc2)cc1 (stereo not shown) is 142.5 to 143 °C

melting point for Cc1ccc(S(=O)(=O)NC2=C(C#N)C(c3ccccc3)c3c(C)nn(-c4ccc(Cl)cc4)c3O2)cc1 (stereo not shown) is 181.4 to 181.7 °C

melting point for Cc1ccc(S(=O)(=O)NC2=C(C#N)C(c3ccncc3)c3c(C)nn(-c4ccccc4)c3O2)cc1 (stereo not shown) is 100.5 to 101.1 °C

melting point for Cc1ccc(S(=O)(=O)NC2=C(C#N)C(c3ccsc3)c3c(C)nn(-c4ccccc4Cl)c3O2)cc1 (stereo not shown) is 67.4 to 68.8 °C
